Just for reference, the supplement of paper PMC12042874 is where these values come from.

test: amyloid nucleation score (Sup35N fusion, yeast selection) (log enrichment); library NNK3; higher = more nucleation; inactive = no reads after selection;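 note: zero at mode of non-aggregating sequences after 7 days selection at 30°C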
parameter: amyloid nucleation score

Would you please look over these solved cases?
• FKSLHTGVQRNTLCARSRTF = inactive
• IEDAMVFLGTNSQTICLFNV = inactive
• LCSYSIESFALLHVFNEAFQ = inactive
• PVNYVYLTRFH = inactive
• YMHGVWRWVVYRIFLYGRQA = inactive

For each entry beneath this line, provide reported amyloid nucleation score.
1. RTLQVWHDWVVG
2. FTLFMDRVIFASSVDSTEIL
3. TVLYWRLRQMMRFRLFSSNW
4. LVKLCIFGLRDGYTVFEYMG
5. CLRVLWLSQLTVSCDF
6. VISFLMKLRWYCTVHGSGGM
7. WYGITEIP
8. VPFVGLLSLALAFYSIKNSN

1. -0.555
2. inactive
3. inactive
4. inactive
5. -0.354
6. inactive
7. inactive
8. 0.921

###

assay: amyloid nucleation score (Sup35N fusion, yeast selection) (log enrichment); library NNK3; higher = more nucleation; inactive = no reads after selection
parameter: amyloid nucleation score

Would you please look over these solved cases?
- CWTMVASVTCYIVLLARWK: inactive
- SNQTWMVNET: inactive
- CGQFVEISKYG: inactive
- PYHGSSMLKIRVRGD: inactive
- MFTGGMFRKVTIQIL: inactive

For each entry beneath this line, provide reported amyloid nucleation score.
1. KFMIVVKCSM
2. RSGFRLLIWYRKQMICLCNL
3. FASSDC
4. TCSHIIPYWYGVRNSQVRYS
5. GVSRGLSLPRSLKYRYCCAV
6. QFIINDSFYINQNNRRYSKV
7. EGFWMNAPGGRISYSINWIA

1: 0.745; 2: inactive; 3: inactive; 4: inactive; 5: inactive; 6: inactive; 7: inactive

For each entry beneath this line, provide reported amyloid nucleation score.
1. VYYKVKEHVGWVFVSVVCIV
2. LAINIFWLEDRCSPIGCNAG

["inactive", "inactive"]

For each entry beneath this line, provide reported amyloid nucleation score.
1. HRDNLWRWNFFCPNY
2. LMRTDNSSKNGSASGGGMSG
3. HYAAFFYLLINMTGHAHFLK

1. 0.993
2. inactive
3. inactive

###

assay: amyloid nucleation score (Sup35N fusion, yeast selection) (log enrichment); library NNK2; higher = more nucleation; inactive = no reads after selection
parameter: amyloid nucleation score
Answers are plain numbers.

Would you please look over these solved cases?
• EFFFRLMTDPTN = -0.376
• SFKICKLMNSNRFFVGICCT = 0.057

For each entry beneath this line, provide reported amyloid nucleation score.
1. PLILGGGLLWIVC
2. ISRKVAGSRDCINVRSTIGL
3. GVWICFRSAMNSIKACFNNR
4. QCYAMSSLMMLYLFFLWGCG

1. 0.201
2. -1.14
3. 5.39
4. -1.05

For each entry beneath this line, provide reported amyloid nucleation score.
1. FNAIYIKFTGRFSLTRDNRC
2. VATNCINMGS

1: 1.73; 2: -0.197

For each entry beneath this line, provide reported amyloid nucleation score.
1. DVEHPLYWPEDVLKASSETV
2. SKVLKRACYGAAGPFRIVHV
3. HLCGGHGLVFFWGFVTMKCG
4. NTLGSELLLFA
5. ICDDNVAVEWLRLTVCTFRL
6. FRGITASYEPIGGARMSARE

1. 1.91
2. 3.29
3. 0.369
4. 1.75
5. 0.396
6. -0.001

Please look up its amyloid nucleation score: AKFMGLCRDKGLQLC
-0.331
